Where these numbers come from: patent US11591323B2

- assay_system: M5 muscarinic receptor (Homo sapiens, UniProt P08912)
- Sequence (P08912 whole entry): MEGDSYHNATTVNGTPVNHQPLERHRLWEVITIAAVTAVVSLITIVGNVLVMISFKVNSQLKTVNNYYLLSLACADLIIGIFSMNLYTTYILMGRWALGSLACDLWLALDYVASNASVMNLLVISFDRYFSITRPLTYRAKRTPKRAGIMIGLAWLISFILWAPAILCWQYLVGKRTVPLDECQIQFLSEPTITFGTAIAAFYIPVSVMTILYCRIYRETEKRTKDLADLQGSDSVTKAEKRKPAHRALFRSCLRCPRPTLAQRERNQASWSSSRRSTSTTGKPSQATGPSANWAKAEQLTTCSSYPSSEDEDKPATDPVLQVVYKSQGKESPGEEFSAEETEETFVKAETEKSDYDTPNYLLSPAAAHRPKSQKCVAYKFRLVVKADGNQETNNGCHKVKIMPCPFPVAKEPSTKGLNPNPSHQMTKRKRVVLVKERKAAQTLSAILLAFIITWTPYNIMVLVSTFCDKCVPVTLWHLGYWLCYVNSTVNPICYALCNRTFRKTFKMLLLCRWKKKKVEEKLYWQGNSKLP
- test_method_notes: accumulation of IPX, M5 CHO cells (M5Gq)
- Format: cell-based
- Design: host or cells: CHO cells, stably transfected
- condition_description: M5 (↑IPX), preferential response, Table 7; operational efficacy
readout_type: τ
Give your answer as a number; write no unit.

compound	τ
Cc1ccc(CN2CC=CCC2)s1.Cl	0.04

// next item, τ requested
Value of τ reported for the compound Cc1ccc(C[N+]2(C)CC=CCC2)s1.[I-] (centres unmarked) is 0.02

###

- assay_system: M5 muscarinic receptor (Homo sapiens)
- test_method_notes: [3H]NMS competition binding, M5 CHO membranes
- Design: host or cells: CHO cells, stably transfected
- condition_description: Inhibition constants (KI) as negative logarithms, M5, high site, reference agonists, high affinity site
readout_type: Ki (µM)
The response must be a number in µM with no trailing unit.

Value of Ki reported for the molecule O=C1CCCN1CC#CCN1CCCC1 [oxotremorine, reference compound] is 0.0126

###

E′MAX: recorded values
- assay_system: M1 muscarinic receptor (Homo sapiens)
- Sequence (P11229 whole entry): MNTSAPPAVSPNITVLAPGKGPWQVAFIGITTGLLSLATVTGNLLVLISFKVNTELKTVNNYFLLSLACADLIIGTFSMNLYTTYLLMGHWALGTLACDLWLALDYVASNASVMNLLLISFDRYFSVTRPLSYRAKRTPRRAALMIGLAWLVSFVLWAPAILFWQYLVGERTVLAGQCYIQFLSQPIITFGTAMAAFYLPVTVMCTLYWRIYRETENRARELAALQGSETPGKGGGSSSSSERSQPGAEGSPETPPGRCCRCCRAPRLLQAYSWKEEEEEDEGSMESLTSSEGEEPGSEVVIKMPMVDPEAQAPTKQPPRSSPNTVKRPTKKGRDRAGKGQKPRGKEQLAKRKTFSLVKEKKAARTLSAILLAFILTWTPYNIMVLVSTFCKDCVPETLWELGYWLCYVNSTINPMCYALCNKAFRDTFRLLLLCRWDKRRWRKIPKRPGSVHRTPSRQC
- test_method_notes: accumulation of inositol phosphates IPX, M1 CHO cells (M1Gq)
- Type: cell-based
- Parameters: host or cells: CHO cells, stably transfected
- condition_description: M1 (↑IPX), preferential response, Table 7
The response must be a number in fold over basal with no trailing unit.

Consider the following illustrative entries.
compound	assay_system	E′MAX, fold over basal
Brc1ccc(CN2CC=CCC2)s1.Cl	M1 muscarinic receptor (Homo sapiens)	2.1
C1=CCN(Cc2cccs2)CC1.Cl	M1 muscarinic receptor (Homo sapiens)	2.0
C[N+]1(Cc2ccc(Cl)s2)CC=CCC1.[I-] (stereo not shown)	M1 muscarinic receptor (Homo sapiens)	7.9

Value of E′MAX reported for the compound Cc1ccc(CN2CC=CCC2)s1.Cl is 2.0

Value of E′MAX reported for the compound C[N+]1(Cc2cccs2)CC=CCC1.[I-] (stereo not shown) is 4.6

Value of E′MAX reported for the compound Cc1ccc(C[N+]2(C)CC=CCC2)s1.[I-] (stereo not shown) is 3.9

Value of E′MAX reported for the compound C[N+]1(Cc2ccc(Br)s2)CC=CCC1.[I-] (stereo not shown) is 1.8

###

EC50: recorded values
- assay_system: M4 muscarinic receptor (Homo sapiens)
- Sequence (P08173 whole entry): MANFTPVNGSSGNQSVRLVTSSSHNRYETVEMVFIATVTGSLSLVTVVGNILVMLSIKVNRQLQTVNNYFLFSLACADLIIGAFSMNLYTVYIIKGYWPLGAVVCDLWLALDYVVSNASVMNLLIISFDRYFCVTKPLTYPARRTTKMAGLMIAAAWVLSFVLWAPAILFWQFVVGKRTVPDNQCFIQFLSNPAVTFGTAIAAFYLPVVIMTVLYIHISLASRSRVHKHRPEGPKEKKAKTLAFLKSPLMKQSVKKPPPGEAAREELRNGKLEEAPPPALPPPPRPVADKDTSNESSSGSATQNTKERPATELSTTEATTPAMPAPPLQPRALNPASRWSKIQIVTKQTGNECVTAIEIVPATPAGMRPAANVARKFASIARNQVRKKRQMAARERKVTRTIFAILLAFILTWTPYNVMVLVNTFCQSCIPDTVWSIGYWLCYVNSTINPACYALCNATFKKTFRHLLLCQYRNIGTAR
- test_method_notes: inhibition of forskolin-stimulated cAMP, M4 CHO cells (M4Gi)
- Assay type: cell-based
- Set-up: host or cells: CHO cells, stably transfected
- condition_description: M4 (↓cAMP), preferential response, Table 7; read-out: pEC50 (converted)
The response must be a number in nM with no trailing unit.

Consider the following illustrative entries.
compound	assay_system	EC50 [nM]
Brc1ccc(CN2CC=CCC2)s1.Cl	M4 muscarinic receptor (Homo sapiens)	2140
Cc1ccc(CN2CC=CCC2)s1.Cl	M4 muscarinic receptor (Homo sapiens)	9770
C1=CCN(Cc2cccs2)CC1.Cl	M4 muscarinic receptor (Homo sapiens)	4270
Cc1ccc(C[N+]2(C)CC=CCC2)s1.[I-] (stereo not drawn)	M4 muscarinic receptor (Homo sapiens)	2880
C[N+]1(Cc2cccs2)CC=CCC1.[I-] (stereo not drawn)	M4 muscarinic receptor (Homo sapiens)	1780

// next item, EC50 requested
Value of EC50 reported for the compound C[N+]1(Cc2ccc(Br)s2)CC=CCC1.[I-] (stereo not drawn) is 2400
